Tmax by entry:
testDetails: Single-dose pharmacokinetics in healthy volunteers under fasting and fed (high-fat breakfast) conditions, plasma concentrations by HPLC-MS, non-compartmental analysis
Type: in vivo, human
conditionDescription: both sexes, human, plasma, oral, under fasting conditions, range among subjects; read-out: Tmax range

// worked examples, Tmax included
COc1ccnc(C[S+]([O-])c2nc3ccc(OC(F)F)cc3[nH]2)c1OC (stereo not drawn) [Pantoprazole, pantoprazole] ... 1.5 to 5 h
COCCCOc1ccnc(C[S+]([O-])c2nc3ccccc3[nH]2)c1C (stereo not drawn) [Rabeprazole, rabeprazole] ... 2 to 7 h

Which value of Tmax has been reported for COc1ccc2[nH]c([S+]([O-])Cc3ncc(C)c(OC)c3C)nc2c1 (stereo not drawn) [Omeprazole, omeprazole] in the records?
1 to 3.5 h

* * *

testDetails: Single-dose pharmacokinetics in healthy volunteers under fasting and fed (high-fat breakfast) conditions, plasma concentrations by HPLC-MS, non-compartmental analysis
Format: in vivo, human
conditionDescription: male, human, plasma, oral, only CYP2C19*1/*1 subjects, Fed, men, mean ± SD
Vd/F by entry:
Field format: number, assumed L/kg, no unit text.

// worked examples, Vd/F included
COc1ccc2[nH]c([S+]([O-])Cc3ncc(C)c(OC)c3C)nc2c1 (stereo not drawn) ... 0.73
COc1ccnc(C[S+]([O-])c2nc3ccc(OC(F)F)cc3[nH]2)c1OC (stereo not drawn) ... 0.23

Which value of Vd/F has been reported for COCCCOc1ccnc(C[S+]([O-])c2nc3ccccc3[nH]2)c1C (stereo not drawn) in the records?
1.02

* * *

testDetails: Single-dose pharmacokinetics in healthy volunteers under fasting and fed (high-fat breakfast) conditions, plasma concentrations by HPLC-MS, non-compartmental analysis
Type: in vivo, human
conditionDescription: male, human, plasma, po, Fast, men, single oral dose, mean ± SD
Experimental: The bioequivalence clinical trials were phase I, randomized, open-label, crossover, single-centre, with two periods separated by a 7-day washout stage. Subjects were randomised to one of the two treatment sequences, RT or TR where R was the reference formulation and T was the test formulation. […] Sample processing, genotyping for CYP2C19 and drug quantification were performed according to Román et al. […] The values of pharmacokinetic parameters were expressed as mean ± standard deviation.
quantityMeasured: half-life (h)
Field format: number, assumed h, no unit text.

COc1ccnc(C[S+]([O-])c2nc3ccc(OC(F)F)cc3[nH]2)c1OC (centres unmarked) ... 1.5

Continue with the molecule presented below.
Which value of half-life has been reported for COCCCOc1ccnc(C[S+]([O-])c2nc3ccccc3[nH]2)c1C (centres unmarked) in the records?
1.2

* * *

testDetails: Single-dose pharmacokinetics in healthy volunteers under fasting and fed (high-fat breakfast) conditions, plasma concentrations by HPLC-MS, non-compartmental analysis
Assay type: in vivo, human
conditionDescription: male, human, plasma, po, Fed, men, single oral dose, mean ± SD
AUC(0-inf) by entry:
Field format: number, assumed ng·h/mL, no unit text.

// worked examples, AUC(0-inf) included
COc1ccc2[nH]c([S+]([O-])Cc3ncc(C)c(OC)c3C)nc2c1 (stereo not drawn) ... 2140
COc1ccnc(C[S+]([O-])c2nc3ccc(OC(F)F)cc3[nH]2)c1OC (stereo not drawn) ... 4610

Continue with the compound presented below.
Which value of AUC(0-inf) has been reported for COCCCOc1ccnc(C[S+]([O-])c2nc3ccccc3[nH]2)c1C (stereo not drawn) in the records?
1050

* * *

testDetails: Single-dose pharmacokinetics in healthy volunteers under fasting and fed (high-fat breakfast) conditions, plasma concentrations by HPLC-MS, non-compartmental analysis
Format: in vivo, human
conditionDescription: male, human, plasma, po, Fast, men, single oral dose, mean ± SD
quantityMeasured: CL/F (mL/min/kg)
Field format: number, assumed mL/min/kg, no unit text.

// worked examples, CL/F included
COc1ccc2[nH]c([S+]([O-])Cc3ncc(C)c(OC)c3C)nc2c1 (stereo not drawn) ... 8.33
COc1ccnc(C[S+]([O-])c2nc3ccc(OC(F)F)cc3[nH]2)c1OC (stereo not drawn) ... 1.83

Which value of CL/F has been reported for COCCCOc1ccnc(C[S+]([O-])c2nc3ccccc3[nH]2)c1C (stereo not drawn) in the records?
5.83

* * *

testDetails: Single-dose pharmacokinetics in healthy volunteers under fasting and fed (high-fat breakfast) conditions, plasma concentrations by HPLC-MS, non-compartmental analysis
Format: in vivo, human
conditionDescription: both sexes, human, plasma, oral, only CYP2C19*1/*1 subjects, Fast, men and women, mean ± SD
quantityMeasured: CL/F (mL/min/kg)
Field format: number, assumed mL/min/kg, no unit text.

COCCCOc1ccnc(C[S+]([O-])c2nc3ccccc3[nH]2)c1C (stereo not drawn) [Rabeprazole, rabeprazole] ... 6.17
COc1ccc2[nH]c([S+]([O-])Cc3ncc(C)c(OC)c3C)nc2c1 (stereo not drawn) [Omeprazole, omeprazole] ... 9.5

Which value of CL/F has been reported for COc1ccnc(C[S+]([O-])c2nc3ccc(OC(F)F)cc3[nH]2)c1OC (stereo not drawn) [Pantoprazole, pantoprazole] in the records?
2
